Numbers sourced from PubChem BioAssay (NCI).

# Tested on: SNB-75 CNS
# assay_explanation: NCI-60 one-dose screen, 48 h (100 = growth as untreated, 0 = no growth, -100 = all killed)
# assay_conditions: 10 µM
About 83,000 compounds went through this panel and 20% of them were active in at least one assay; those are over-represented in the sample as a whole.
Please go through the items and note down their growth.
Numbers only, in %.

Could you report growth for every entry in the following list?
1. CC(C)C[C@H](NC(=O)Cn1cccc(CNC(=O)c2ccccc2)c1=O)B(O)O
2. Cc1nn(-c2ccc(-c3ccc(OC(F)(F)F)cc3)cc2)c2nc(Cc3ccccc3)nc(N)c12
3. CCN(CC)CCOc1cccc2c1C(=O)c1ccccc1C2=O
4. CCOS(=O)(=O)c1c(C(C)C)cc(C(C)C)cc1C(C)C
5. O=S(=O)(Oc1ccc(-c2ccc3sccc3c2)cc1)c1ccccc1
6. Cc1cn(-c2cccc(NC(=O)c3ccc(C)c(Nc4nccc(-c5cccnc5)n4)c3)c2)cn1
7. O=[N+]([O-])c1ccc2ncccc2c1Cl

1. -4.6
2. 34.9
3. 86.4
4. 96.8
5. 120
6. -45
7. 73.9

Could you report growth for every entry in the following list?
1. CN(C)CCCOc1ccccc1NC1=C(Cl)C(=O)C(Nc2ccccc2OCCCN(C)C)=C(Cl)C1=O
2. CN1CCN(c2cc3c(cc2F)c(=O)c(C(=O)O)cn3-c2ccc(F)cc2)CC1
3. C=CCSC(CC)(CC)C(=O)NC
4. CCCCC/C=C/C/C=C/CCCCCCCC1=NC(C)(C)CN1C(C)C

1: 35; 2: 55.2; 3: 89.5; 4: 42.7

---

# Test system: UO-31 renal
# assay_explanation: NCI-60 one-dose screen, 48 h (100 = growth as untreated, 0 = no growth, -100 = all killed)
# assay_conditions: 10 µM
About 83,000 compounds went through this panel and 20% of them were active in at least one assay; those are over-represented in the sample as a whole.
endpoint: growth (%)
Numbers only, in %.

The examples below pair each entry with its known result.
| chemical_smiles | tgt | growth [%] |
| --- | --- | --- |
| Cc1nn(-c2ccccc2)c2nc(Cl)c(C=O)c(-c3ccccc3)c12 | UO-31 renal | 48.1 |
| NS(=O)(=O)Oc1ccc2c(ccn2C(=O)C23CC4CC(CC(C4)C2)C3)c1 | UO-31 renal | 80.4 |
| O=C(CCCSc1nc(-c2ccc(Cl)cc2)cc(-c2ccc(Cl)cc2)n1)NO | UO-31 renal | -34.9 |

Could you report growth for every entry in the following list?
1. COc1cc(-c2nn(-c3cccc(NC(=O)CCNc4ccc(N5CCOCC5)cc4)c3)cc2-c2ccncc2)ccc1Cl
2. O=C(CSc1nccc(Nc2cccc3ccccc23)n1)c1ccc(Cl)cc1

27.3
49.8

---

# System: 786-0 renal
# assay_explanation: NCI-60 one-dose screen, 48 h
# assay_conditions: 10 µM
Compounds without any hit were thinned out: in the full panel of roughly 83,000, 20% have a hit. Activity calls are given as the source filed them. Rule for the calls: active = growth percent below 10; inactive = the rest.
The categories you may choose from are label 1 = active, label 0 = inactive

| compound | tgt | group_label |
| --- | --- | --- |
| CC(=O)Nc1ccc2c(c1)C(=O)c1cccc(C(=O)O)c1-2 | 786-0 renal | label 0 |
| COc1cc(/C=C2\CCCC3=C2N=C2SC(C)=CN2C3c2cc(OC)c(OC)c(OC)c2)cc(OC)c1OC (centres undefined) | 786-0 renal | label 1 |
| O=C(/C=C/C=C/c1c(C2CC2)nc2ccccc2c1-c1ccc(F)cc1)c1cccs1 | 786-0 renal | label 0 |
| Cc1cc(CC(C)CC(C)(C)C)n(O)c(=O)c1 (centres undefined) (tested in a mixture with another compound) | 786-0 renal | label 0 |
| N#Cc1c(-c2ccc(Cl)cc2)csc1NC(=O)Nc1ccc(Cl)c(C(F)(F)F)c1 | 786-0 renal | label 0 |
| COc1ccc(C2CC(c3cccs3)=NN2c2ccc(S(N)(=O)=O)cc2)cc1 (centres undefined) | 786-0 renal | label 0 |

// outcome(item) with item = CC(C)(C)OC(=O)N1CCc2c(sc3ncnc(N/N=C/c4ccccc4Br)c23)C1
label 0

// outcome(item) with item = CC(=O)Oc1cc(OC(C)=O)c2ccccc2c1OC(C)=O
label 0

// outcome(item) with item = Cc1cc(NC(=O)c2ccc(C)c(Nc3nccc(-c4cccnc4)n3)c2)cc(-n2cnc(C)c2)c1
label 1

// outcome(item) with item = COc1ccc(-c2csc(NC(=O)c3ccc(Cc4n[nH]c(=O)c5cccnc45)cc3)n2)cc1
label 0

// outcome(item) with item = CCOC(=O)c1sc2ncnc(Nc3ccc4c(cnn4C(=O)Nc4ccc(C)c(Cl)c4)c3)c2c1C
label 0

// outcome(item) with item = Cc1ccc(C(=O)/C=C/c2ccccc2)s1
label 0

// outcome(item) with item = O=[N+]([O-])c1ccc(/C(=C/c2ccccc2)[n+]2ccccc2)cc1
label 0

// outcome(item) with item = O=C1OC(C(Cl)(Cl)Cl)OC1C(Cl)(Cl)Cl (centres undefined)
label 0

// outcome(item) with item = Cc1cc(Cl)ccc1Nc1nc(C(F)(F)F)ccc1C(=O)N/N=C/c1c(Cl)cccc1Cl
label 1

// outcome(item) with item = Fc1ccc(C(c2ccc(F)cc2)C(Cl)Cl)cc1
label 0

// outcome(item) with item = O=C(O)c1cn(C2CC2)c2cc(N3CCN(C(=O)c4cc(-c5ccc(Cl)cc5)nc5ccccc45)CC3)c(F)cc2c1=O
label 0

// outcome(item) with item = COc1ccc(/C=C2/SC(=S)NC2=O)c(OC)c1OC
label 0

// outcome(item) with item = COc1ccc(-c2n[nH]nc2-c2cc(OC)c3c(c2OC)OCO3)cc1
label 0

// outcome(item) with item = COc1ccc(-c2nn(-c3cccc(Cl)c3)cc2/C=C2\NC(=S)N(c3ccc(Cl)cc3)C2=O)cc1
label 0

// outcome(item) with item = COc1cc(-c2nn(-c3cccc(NC(=O)NCCNC(=O)c4cccc(C(F)(F)F)c4)c3)cc2-c2ccncc2)ccc1Cl
label 0

---

# Test system: OVCAR-3 ovarian
# assay_explanation: NCI-60 one-dose screen, 48 h (100 = growth as untreated, 0 = no growth, -100 = all killed)
# assay_conditions: 10 µM
Compounds without any hit were thinned out: in the full panel of roughly 83,000, 20% have a hit.
Please go through the items and note down their growth.
Answers are plain numbers, in %.

| molecule | tgt | growth, % |
| --- | --- | --- |
| O=C(CCCSc1nc(-c2ccc(Cl)cc2)cc(-c2ccc(Cl)cc2)n1)NO | OVCAR-3 ovarian | 5.4 |

Could you report growth for every entry in the following list?
1. CCN1CC(CCN2CCOCC2)C(C(c2ccccc2)c2ccccc2)C1=O (stereo unspecified)
2. COc1ccc(/C=C2\CCCC3=C2NC(N)=NC3c2ccc(OC)cc2)cc1 (stereo unspecified)

1. 112
2. 102

Could you report growth for every entry in the following list?
1. COc1cc2nc(SCC(=O)Nc3cc(OC)c(OC)c(OC)c3)n(Cc3ccccc3)c(=O)c2cc1OC
2. Nc1nc(Cl)nc2c1ncn2C1O[C@H](CO)[C@@H](O)[C@@H]1F (stereo partly specified)
3. Cc1ccc(NC(=O)N2CCCCC2)cc1[N+](=O)[O-]
4. O=C1c2ccccc2-c2c1c1cccnc1c(=O)n2C[C@H](O)CO
5. OCCn1cccn1

1: 69.7; 2: 60.7; 3: 115; 4: 79.6; 5: 104

Could you report growth for every entry in the following list?
1. O=C1c2ccccc2C(=O)N1CCCCNc1ccccc1
2. Fc1ccc2[nH]cc(-c3nc(-c4ccsc4)cs3)c2c1

[91, 99.8]

Provide growth value for the following molecule: COc1ccc(C(=O)CC(CC(=O)c2ccc(OC)cc2)c2c(C)nn(-c3ccccc3)c2Cl)cc1
115

---

# Test system: TK-10 renal
# assay_explanation: NCI-60 one-dose screen, 48 h
# assay_conditions: 10 µM
About 83,000 compounds went through this panel and 20% of them were active in at least one assay; those are over-represented in the sample as a whole. Activity calls are given as the source filed them. The calls were made as follows: active = growth percent below 10; inactive = the rest.
The categories you may choose from are active, inactive

// known answers, use as guide
| molecule | group_label |
| --- | --- |
| c1cnc2[nH]cc(-c3nc(-c4ccsc4)cs3)c2c1 | inactive |
| Cc1nn(-c2ccc(-c3ccc(OC(F)(F)F)cc3)cc2)c2nc(Cc3ccccc3)nc(N)c12 | inactive |
| c1ccc(CSc2ncccc2-c2nnc(SCCN3CCOCC3)o2)cc1 | inactive |
| O=c1cn[nH]c2ccc(Br)cc12 | inactive |

// outcome(item) with item = Cc1ccc(S(=O)(=O)N/N=C2\CCCc3ccccc32)cc1
inactive

// outcome(item) with item = Cc1cc(O)ccc1C1=NN(c2ccc(S(C)(=O)=O)cc2)C(=O)CC1
inactive

// outcome(item) with item = COc1cc(-c2ccc(N=Nc3ccc4c(S(=O)(=O)O)ccc(N)c4c3O)c(OC)c2)ccc1N=Nc1ccc2c(S(=O)(=O)O)ccc(N)c2c1O
inactive

// outcome(item) with item = CC[C@@H](C(=O)[C@@H](C)[C@@H](O)[C@H](C)[C@@H]1O[C@@H]([C@@H](CC)C(=O)N(CC)CC)CC[C@@H]1C)C1O[C@]2(C=CC(=O)[C@]3(CC[C@@](C)([C@H]4CC[C@](O)(CC)[C@H](C)O4)O3)O2)[C@H](C)C[C@@H]1C (stereo partly drawn)
inactive

// outcome(item) with item = COc1cc(C2CC(c3cc(Cl)c(C)cc3O)=NN2c2ccc(S(N)(=O)=O)cc2)cc(OC)c1OC (stereo not drawn)
inactive

// outcome(item) with item = CNC(=O)c1cn(C2CC2)c2cc(N3CCN(C(=O)c4cc(OC)c(OC)c(OC)c4)CC3)c(F)cc2c1=O
inactive

// outcome(item) with item = COc1ccc(/C(=N\N)C(=O)c2ccccc2)cc1 (tested in a mixture with another compound)
inactive
